# Tgt: Fructose-1,6-bisphosphatase 1 (Homo sapiens, UniProt P09467)
# Sequence (P09467 whole entry): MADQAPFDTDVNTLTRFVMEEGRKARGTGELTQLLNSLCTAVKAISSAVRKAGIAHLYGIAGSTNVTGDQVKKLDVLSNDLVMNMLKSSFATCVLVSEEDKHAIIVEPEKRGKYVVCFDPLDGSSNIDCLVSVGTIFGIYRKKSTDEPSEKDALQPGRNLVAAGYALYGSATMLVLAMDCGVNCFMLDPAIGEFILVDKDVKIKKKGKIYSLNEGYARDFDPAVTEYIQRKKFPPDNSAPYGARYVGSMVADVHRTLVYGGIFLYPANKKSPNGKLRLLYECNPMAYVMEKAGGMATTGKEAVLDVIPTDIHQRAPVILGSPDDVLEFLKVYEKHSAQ
# Assay text: Inhibition of FBPase (unknown origin)
Readout name: IC50 (nM)

• O=C(O)CCc1c(C(=O)O)[nH]c2cc(Cl)cc(Cl)c12 = 2500

---

Readings of IC50 for the listed compounds
# Tgt: Fructose-1,6-bisphosphatase 1 (Homo sapiens, UniProt P09467)
# Assay text: Inhibition of human recombinant FBPase expressed in Escherichia coli BL21(DE3) by phosphoglucose isomerase and glucose-6-phosphate dehydrogenase coupled assay
Readout name: IC50 (µM)

• O=C(O)c1[nH]c2c([N+](=O)[O-])cccc2c1-c1ccccc1 = 12.7
• CCc1c(C(=O)O)[nH]c2c([N+](=O)[O-])cccc12 = 6.2
• COc1ccc(Nc2ccc([N+](=O)[O-])c3[nH]c(C(=O)O)cc23)cc1OC = 7.7

---

Parameter IC50: see the listing below.
# Tgt: Fructose-1,6-bisphosphatase 1 (Homo sapiens, UniProt P09467)
# Assay text: Inhibition of human recombinant FBPase expressed in Escherichia coli BL21(DE3) by phosphoglucose isomerase and glucose-6-phosphate dehydrogenase coupled assay
Readout name: IC50

* O=C(O)c1[nH]c2c([N+](=O)[O-])cccc2c1-c1cccc(F)c1 | 4.5 µM
* CC(C)Cc1cc([N+](=O)[O-])c2[nH]c(C(=O)O)cc2c1 | 5.4 µM
* COc1cccc(-c2ccc([N+](=O)[O-])c3[nH]c(C(=O)O)cc23)c1 | > 50 µM
* O=C(O)c1cc2c(-c3ccc(C(F)(F)F)cc3)ccc([N+](=O)[O-])c2[nH]1 | > 50 µM
* CC(C)Cc1ccc([N+](=O)[O-])c2[nH]c(C(=O)O)cc12 | 9.7 µM
* Cc1cccc(Nc2ccc([N+](=O)[O-])c3[nH]c(C(=O)O)cc23)c1 | 4.3 µM
* CCCN(c1cccc(OC)c1)c1ccc([N+](=O)[O-])c2[nH]c(C(=O)O)cc12 | > 50 µM
* Nc1cccc(Nc2ccc([N+](=O)[O-])c3[nH]c(C(=O)O)cc23)c1 | > 50 µM
* O=C(O)c1cc2c(-c3cccc(C(F)(F)F)c3)ccc([N+](=O)[O-])c2[nH]1 | > 50 µM
* COc1ccccc1Nc1ccc([N+](=O)[O-])c2[nH]c(C(=O)O)cc12 | > 50 µM
* COc1cccc(Nc2ccc([N+](=O)[O-])c3[nH]c(C(=O)O)cc23)c1 | 25.6 µM
* Cc1cccc(-c2ccc([N+](=O)[O-])c3[nH]c(C(=O)O)cc23)c1 | 25.9 µM
* COc1ccc(Nc2ccc([N+](=O)[O-])c3[nH]c(C(=O)O)cc23)cc1 | > 50 µM
* O=C(O)c1cc2c(Nc3ccc(Cl)cc3)ccc([N+](=O)[O-])c2[nH]1 | > 50 µM
* O=C(O)c1cc2c(-c3cccc(Cl)c3)ccc([N+](=O)[O-])c2[nH]1 | > 50 µM
* O=C(O)CCc1c(C(=O)O)[nH]c2cc(Cl)cc(Cl)c12 | 2 µM
* O=C(O)c1cc2c(-c3ccc(Cl)cc3)ccc([N+](=O)[O-])c2[nH]1 | > 50 µM
* CC(=O)Nc1cccc(Nc2ccc([N+](=O)[O-])c3[nH]c(C(=O)O)cc23)c1 | > 50 µM
* Nc1cccc(-c2ccc([N+](=O)[O-])c3[nH]c(C(=O)O)cc23)c1 | > 50 µM
* COc1cccc(Nc2cc([N+](=O)[O-])c3[nH]c(C(=O)O)cc3c2)c1 | 4.06 µM
* Nc1ncnc2c1ncn2[C@@H]1O[C@H](COP(=O)(O)O)[C@@H](O)[C@H]1O [ADENOSINE PHOSPHATE] | 3.2 µM
* COc1cc(Nc2ccc([N+](=O)[O-])c3[nH]c(C(=O)O)cc23)cc(OC)c1OC | > 50 µM
* O=C(O)c1cc2c(-c3ccccc3)ccc([N+](=O)[O-])c2[nH]1 | > 50 µM
* O=C(O)c1cc2c(Nc3ccc([N+](=O)[O-])cc3)ccc([N+](=O)[O-])c2[nH]1 | 3.4 µM
* O=C(O)c1cc2c(Nc3cccc([N+](=O)[O-])c3)ccc([N+](=O)[O-])c2[nH]1 | > 50 µM
* COc1cccc(-c2c(C(=O)O)[nH]c3c([N+](=O)[O-])cccc23)c1 | 35.6 µM
* N#Cc1ccc(-c2ccc([N+](=O)[O-])c3[nH]c(C(=O)O)cc23)cc1 | > 50 µM
* N#Cc1cccc(-c2ccc([N+](=O)[O-])c3[nH]c(C(=O)O)cc23)c1 | > 50 µM
* O=C(O)c1cc2c(Nc3cccc(Cl)c3)ccc([N+](=O)[O-])c2[nH]1 | > 50 µM
* COc1cccc(N(C)c2ccc([N+](=O)[O-])c3[nH]c(C(=O)O)cc23)c1 | > 50 µM
* O=C(O)c1cc2c(Nc3ccc(C(F)(F)F)cc3)ccc([N+](=O)[O-])c2[nH]1 | 12.2 µM
* O=C(O)c1cc2c(Nc3ccccc3)ccc([N+](=O)[O-])c2[nH]1 | > 50 µM
* CC(=O)Nc1cccc(-c2ccc([N+](=O)[O-])c3[nH]c(C(=O)O)cc23)c1 | 18.5 µM
* Cc1ccc(Nc2ccc([N+](=O)[O-])c3[nH]c(C(=O)O)cc23)cc1 | 33.9 µM
* CC(C)Cc1c(C(=O)O)[nH]c2c([N+](=O)[O-])cccc12 | 10.3 µM
* O=C(O)c1cc2c(Nc3cccc(C(F)(F)F)c3)ccc([N+](=O)[O-])c2[nH]1 | 29.1 µM
* CCc1c(C(=O)O)[nH]c2c([N+](=O)[O-])cc(CC(C)C)cc12 | 0.99 µM
* CC(=O)Nc1cccc(-c2cc([N+](=O)[O-])c3[nH]c(C(=O)O)cc3c2)c1 | 3.7 µM
* CC(=O)Nc1cccc(-c2c(C(=O)O)[nH]c3c([N+](=O)[O-])cccc23)c1 | 7.4 µM
